Hi there, I'd appreciate the recorded IC50 for every entry that follows.
- target of assay: KRas^G12D (Homo sapiens, UniProt P01116, G12D)
- Construct: Biotinylated KRas (corresponding to amino acids 1-169, produced at Accelegan Inc.); biotin (biotinylated); purchased Accelegan Inc
- Sequence (P01116 1-169 isoform P01116-2 G12D): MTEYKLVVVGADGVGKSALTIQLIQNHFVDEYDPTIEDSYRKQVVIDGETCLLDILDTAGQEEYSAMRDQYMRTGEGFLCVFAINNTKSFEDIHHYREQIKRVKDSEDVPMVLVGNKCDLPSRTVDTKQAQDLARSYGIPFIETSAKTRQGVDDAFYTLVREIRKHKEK
- test method notes: KRas binding assay (TR-FRET tracer displacement), KRas G12D

Ask: Recorded IC50 for CCc1c(F)ccc2cc(O)cc(-c3ncc4c(N5C[C@@H]6C[C@H](C5)[C@H](O)C6)nc(OCC56CCCN5CC(=C(F)F)C6)nc4c3F)c12 (stereo partly drawn) , please?
Result: < 2 nM

Ask: Recorded IC50 for CCc1c(F)ccc2cc(O)cc(-c3ncc4c(N5C[C@@H]6C[C@H](C5)[C@H](O)C6)nc(OCC56CC(F)CN5CC(F)C6)nc4c3F)c12 (stereo partly drawn) , please?
Result: 18 nM

Ask: Recorded IC50 for `CCc1cccc2cc3[nH]ncc3c(-c3ncc4c(N5CCCn6nc(C(=O)N(C)C)cc6C5)nc(OC[C@@]56CCCN5C[C@H](F)C6)nc4c3F)c12` , please?
Result: < 2 nM

Ask: Recorded IC50 for `C[C@@H]1C[C@@H]1c1c(Cl)cc(O)cc1-c1ncc2c(N3CCC[C@]4(C3)NC(=O)NC4=O)nc(OC[C@@]34CCCN3C[C@H](F)C4)nc2c1F` , please?
Result: < 2 nM

Ask: Recorded IC50 for CCc1c(F)ccc2cc(O)cc(-c3ncc4c(NC5CC6(CCCO6)C5)nc(OC[C@@]56CCCN5C[C@H](F)C6)nc4c3F)c12 (stereo partly drawn) , please?
Result: 79 nM

Ask: Recorded IC50 for CCc1c(F)ccc2cc(O)cc(-c3ncc4c(N5C[C@@H]6C[C@H](C5)[C@H](O)C6)nc(OCC56CCCN5CC5(CC5)C6)nc4c3F)c12 (stereo partly drawn) , please?
Result: < 2 nM

Ask: Recorded IC50 for CCc1c(F)ccc2cc(O)cc(-c3ncc4c(N5CCCOC(CCOC)C5)nc(OC[C@@]56CCCN5C[C@H](F)C6)nc4c3F)c12 (stereo partly drawn) , please?
Result: 14 nM

Ask: Recorded IC50 for `C#Cc1c(F)ccc2cc(O)cc(-c3ncc4c(N5CCC[C@@](C)(O)C5)nc(OC[C@@]56CCCN5[C@@H](CO)CC6)nc4c3F)c12` , please?
Result: 3 nM

Ask: Recorded IC50 for O=S1(=O)NCC2(CCCN(c3nc(OCC45CCCN4CCC5)nc4c(F)c(-c5cc(O)cc(Cl)c5C5CC5)ncc34)C2)N1 (stereo not drawn) , please?
Result: < 2 nM

Ask: Recorded IC50 for `CCc1c(F)ccc2cc(O)cc(-c3ncc4c(N5CCC[C@@](C)(O)C5)nc(OC[C@@]56CCCN5C/C(=C\F)C6)nc4c3F)c12` , please?
Result: < 2 nM

Ask: Recorded IC50 for `CCc1c(F)ccc2cc(O)cc(-c3ncc4c(N5CCC[C@@](C)(O)C5)nc(OC[C@@]56CCCN5[C@H](COC(=O)N5CCCCC5)CC6)nc4c3F)c12` , please?
Result: < 2 nM

Ask: Recorded IC50 for CCc1c(F)ccc2cc(O)cc(-c3ncc4c(N5CCC6(CC5)OCCC6C#N)nc(OC[C@@]56CCCN5C[C@H](F)C6)nc4c3F)c12 (stereo partly drawn) , please?
Result: 4250 nM

---

- target of assay: KRas^G12R (Homo sapiens, UniProt P01116, G12R)
- Construct: Biotinylated KRas (corresponding to amino acids 1-169, produced at Accelegan Inc.); biotin (biotinylated); purchased Accelegan Inc
- Sequence (P01116 1-169 isoform P01116-2 G12R): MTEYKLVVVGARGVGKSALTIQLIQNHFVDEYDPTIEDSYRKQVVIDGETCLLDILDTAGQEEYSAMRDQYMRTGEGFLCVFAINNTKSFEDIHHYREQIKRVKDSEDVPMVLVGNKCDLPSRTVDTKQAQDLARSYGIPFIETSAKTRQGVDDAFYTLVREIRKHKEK
- test method notes: KRas binding assay (TR-FRET tracer displacement), KRas G12R
value type: IC50 (nM)
Please reply with the bare figure in nM and do not write the unit itself.

Ask: Recorded IC50 for CCc1c(F)ccc2cc(O)cc(-c3ncc4c(N5CCC(CC6CCCO6)C5)nc(OC[C@@]56CCCN5C[C@H](F)C6)nc4c3F)c12 (stereo partly drawn) , please?
Result: 194

Ask: Recorded IC50 for `CCc1c(F)ccc2cc(O)cc(-c3ncc4c(N5Cc6n[nH]c(CO)c6C5)nc(OC[C@@]56CCCN5C[C@H](F)C6)nc4c3F)c12` , please?
Result: 787

Ask: Recorded IC50 for `CCc1c(F)ccc2cc(O)cc(-c3ncc4c(/C=C/c5ccnn5C)nc(OC[C@@]56CCCN5C[C@H](F)C6)nc4c3F)c12` , please?
Result: 354

Ask: Recorded IC50 for `CCc1c(F)ccc2cc(O)cc(-c3ncc4c(NCc5cc(C(=O)N(C)C)nn5C5CS(=O)(=O)C5)nc(OC[C@@]56CCCN5C[C@H](F)C6)nc4c3F)c12` , please?
Result: 6

Ask: Recorded IC50 for `Cc1cc2sncc2c(-c2ncc3c(N4CCC[C@@](C)(O)C4)nc(OCC45CCCN4CCC5)nc3c2F)c1C` , please?
Result: 76200

Ask: Recorded IC50 for CCc1c(F)ccc2cc(O)cc(-c3ncc4c(N5CC6CCC(COCCOC)(C6)C5)nc(OC[C@@]56CCCN5C[C@H](F)C6)nc4c3F)c12 (stereo partly drawn) , please?
Result: 9

Ask: Recorded IC50 for CCc1c(F)ccc2cc(O)cc(-c3ncc4c(N5CCC(C)C(F)(F)CC5)nc(OC[C@@]56CCCN5C[C@H](F)C6)nc4c3F)c12 (stereo partly drawn) , please?
Result: 41

Ask: Recorded IC50 for CCc1c(F)ccc2cc(O)cc(-c3ncc4c(N5CC6CCC(C(N)=O)(C6)C5)nc(OC[C@@]56CCCN5C[C@H](F)C6)nc4c3F)c12 (stereo partly drawn) , please?
Result: 5

Ask: Recorded IC50 for CCc1c(F)ccc2cc(O)cc(-c3ncc4c(N5CCC(c6ccc(=O)[nH]n6)C5)nc(OC[C@@]56CCCN5C[C@H](F)C6)nc4c3F)c12 (stereo partly drawn) , please?
Result: 267

Ask: Recorded IC50 for `CCc1c(F)ccc2cc(O)cc(-c3ncc4c(N5CCC[C@H](c6ccnn6C)CC5)nc(OC[C@@]56CCCN5C[C@H](F)C6)nc4c3F)c12` , please?
Result: 839

Ask: Recorded IC50 for CCc1cccc2cccc(-c3ncc4c(C5CCCOCC5)nc(OCC56CCCN5CCC6)nc4c3F)c12 (racemic) , please?
Result: 27500

Ask: Recorded IC50 for CCc1c(F)ccc2cc(O)cc(-c3ncc4c(N5CCCC6(CC=CCO6)C5)nc(OC[C@@]56CCCN5C[C@H](F)C6)nc4c3F)c12 (stereo partly drawn) , please?
Result: 12

Ask: Recorded IC50 for `CCc1c(F)ccc2cc(O)cc(-c3ncc4c(N5CC6CCC(CC6)C5)nc(OC[C@@]56CCCN5C[C@H](F)C6)nc4c3F)c12` , please?
Result: 46

Ask: Recorded IC50 for CCc1c(F)ccc2cc(O)cc(-c3ncc4c(NCc5cn(C(=O)N(C)C)nc5NC(=O)C5CCC5O)nc(OC[C@@]56CCCN5C[C@H](F)C6)nc4c3F)c12 (stereo partly drawn) , please?
Result: 86

Ask: Recorded IC50 for `Cc1cc2[nH]ncc2c(-c2ncc3c(N4CCC[C@]5(C4)NC(=O)NC5=O)nc(OCC4(CN(C)C)CC4)nc3c2F)c1C` , please?
Result: 47

Ask: Recorded IC50 for CCc1c(F)ccc2cc(O)cc(-c3ncc4c(N5CCCC(S(N)(=O)=O)CC5)nc(OC[C@@]56CCCN5C[C@H](F)C6)nc4c3F)c12 (stereo partly drawn) , please?
Result: 33

Ask: Recorded IC50 for `CCc1c(F)ccc2cc(O)cc(-c3ncc4c(NC56CCC(C#N)(CC5)CC6)nc(OC[C@@]56CCCN5C[C@H](F)C6)nc4c3F)c12` , please?
Result: 76

Ask: Recorded IC50 for `CCc1c(F)ccc2cc(O)cc(-c3ncc4c(CCc5ccnn5C)nc(OC[C@@]56CCCN5C[C@H](F)C6)nc4c3F)c12` , please?
Result: 656

Ask: Recorded IC50 for `CCc1c(F)ccc2cc(O)cc(-c3ncc4c(N5Cc6n[nH]c(C(=O)N(C)C)c6C5)nc(OC[C@@]56CCCN5C[C@H](F)C6)nc4c3F)c12` , please?
Result: 766

Ask: Recorded IC50 for CCc1c(F)ccc2cc(O)cc(-c3ncc4c(NC5CC6(CCCO6)C5)nc(OC[C@@]56CCCN5C[C@H](F)C6)nc4c3F)c12 (stereo partly drawn) , please?
Result: 10

---

- target of assay: KRas^G12C (Homo sapiens, UniProt P01116, G12C)
- Construct: Biotinylated KRas (corresponding to amino acids 1-169, produced at Accelegan Inc.); biotin (biotinylated); purchased Accelegan Inc
- Sequence (P01116 1-169 isoform P01116-2 G12C): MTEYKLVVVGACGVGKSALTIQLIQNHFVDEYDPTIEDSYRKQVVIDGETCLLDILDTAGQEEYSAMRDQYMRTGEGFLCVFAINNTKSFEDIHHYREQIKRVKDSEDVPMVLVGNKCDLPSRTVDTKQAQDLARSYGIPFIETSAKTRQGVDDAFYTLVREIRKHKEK
- test method notes: KRas binding assay (TR-FRET tracer displacement), KRas G12C
- experimental conditions: TR-FRET tracer displacement, KRas G12C
Hi there, I'd appreciate the recorded IC50 for every entry that follows.
Please reply with the bare figure in nM and do not write the unit itself.

Ask: Recorded IC50 for CCc1c(F)ccc2cc(O)cc(-c3ncc4c(N5C[C@@H]6C[C@H](C5)[C@H](O)C6)nc(OC[C@@]56CCCN5C[C@@H](OC)C6)nc4c3F)c12 [Example 925] , please?
Result: 4

Ask: Recorded IC50 for Cc1c(O)cc(-c2ncc3c(N4C[C@@H]5C[C@H](C4)[C@H](O)C5)nc(OC[C@@]45CCCN4C[C@H](F)C5)nc3c2F)c2ccccc12 [Example 790] , please?
Result: 9220

Ask: Recorded IC50 for O=C1NCC2(CCCN(c3nc(OC[C@@]45CCCN4C[C@H](F)C5)nc4c(F)c(-c5c6ccccc6cc6[nH]ncc56)ncc34)C2)N1 (stereo partly drawn) [Example 760] , please?
Result: 73

Ask: Recorded IC50 for CN(C)C(=O)c1cc2n(n1)CCCN(c1nc(OCC34CCCN3CCC4)nc3c(F)c(-c4c5ccccc5cc5[nH]ncc45)ncc13)C2 [Example 757] , please?
Result: 46

Ask: Recorded IC50 for Cc1cc2[nH]nnc2c(-c2ncc3c(N4CCCC5(CNS(=O)(=O)N5)C4)nc(OCC45CCCN4CCC5)nc3c2F)c1C (stereo not drawn) [Example 855] , please?
Result: 25

Ask: Recorded IC50 for CCc1cccc2cc3[nH]ncc3c(-c3ncc4c(N5CCCC6(CC(=O)N6)C5)nc(OC[C@@]56CCCN5C[C@H](F)C6)nc4c3F)c12 (stereo partly drawn) [Example 771] , please?
Result: 8

Ask: Recorded IC50 for O=C1NC(=O)C2(CCCN(c3nc(OCC45CCCN4CCC5)nc4c(F)c(-c5c6ccccc6cc6[nH]ncc56)ncc34)C2)N1 (stereo not drawn) [Example 755] , please?
Result: 11
